Measured values drawn from patent US12122763B2 for this set.

Biological target: Androgen Receptor (AR) protein (Homo sapiens, UniProt P10275, T878A)
Construct: endogenous in cells; host or cells: LNCaP
Sequence (P10275 whole entry T878A): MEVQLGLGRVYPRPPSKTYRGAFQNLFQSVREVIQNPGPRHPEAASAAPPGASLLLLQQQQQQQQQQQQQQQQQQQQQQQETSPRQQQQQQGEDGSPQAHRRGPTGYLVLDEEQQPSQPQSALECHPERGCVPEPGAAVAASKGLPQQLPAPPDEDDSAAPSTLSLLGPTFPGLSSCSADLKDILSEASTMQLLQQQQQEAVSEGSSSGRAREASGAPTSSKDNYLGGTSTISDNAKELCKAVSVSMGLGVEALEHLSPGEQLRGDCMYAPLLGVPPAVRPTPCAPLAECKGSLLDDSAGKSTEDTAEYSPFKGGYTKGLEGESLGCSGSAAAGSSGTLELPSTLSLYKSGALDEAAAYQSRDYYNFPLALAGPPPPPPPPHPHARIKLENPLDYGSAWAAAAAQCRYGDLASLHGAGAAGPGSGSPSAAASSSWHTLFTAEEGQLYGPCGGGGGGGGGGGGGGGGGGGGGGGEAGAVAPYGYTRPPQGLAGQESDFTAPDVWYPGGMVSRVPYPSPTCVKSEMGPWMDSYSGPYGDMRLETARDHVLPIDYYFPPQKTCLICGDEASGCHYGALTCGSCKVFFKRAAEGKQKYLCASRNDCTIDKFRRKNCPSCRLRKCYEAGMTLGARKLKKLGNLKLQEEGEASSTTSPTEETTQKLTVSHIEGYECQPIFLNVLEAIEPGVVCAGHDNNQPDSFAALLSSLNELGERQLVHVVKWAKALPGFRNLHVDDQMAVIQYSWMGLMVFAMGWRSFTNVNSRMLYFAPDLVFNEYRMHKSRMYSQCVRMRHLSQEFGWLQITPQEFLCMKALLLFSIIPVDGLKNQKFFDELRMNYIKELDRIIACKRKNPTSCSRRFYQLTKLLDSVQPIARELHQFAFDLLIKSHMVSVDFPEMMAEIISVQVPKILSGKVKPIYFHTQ
Sequence (Q96SW2 whole entry partner): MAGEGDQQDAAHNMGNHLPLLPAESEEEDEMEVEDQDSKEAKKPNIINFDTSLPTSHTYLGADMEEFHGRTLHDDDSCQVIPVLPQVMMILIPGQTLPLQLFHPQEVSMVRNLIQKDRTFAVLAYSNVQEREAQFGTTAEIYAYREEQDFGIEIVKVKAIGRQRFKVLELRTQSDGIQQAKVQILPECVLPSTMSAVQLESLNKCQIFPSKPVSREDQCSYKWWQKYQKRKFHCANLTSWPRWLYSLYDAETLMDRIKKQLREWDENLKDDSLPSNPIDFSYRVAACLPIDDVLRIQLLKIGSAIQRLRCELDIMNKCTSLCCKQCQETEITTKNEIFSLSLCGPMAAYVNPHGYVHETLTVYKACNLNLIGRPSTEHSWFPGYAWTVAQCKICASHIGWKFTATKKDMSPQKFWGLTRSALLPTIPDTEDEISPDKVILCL
Experiment: Androgen Receptor (AR) protein degradation assay in LNCaP cells, western blotting
Assay type: cell-based
Settings: 20 h, 1 μM compound
Experimental: Experimental Example 1: Androgen Receptor (AR) Protein Degradation Assay After treating LNCaP cells with the synthesized Example compound, the amount of AR protein present in the cells was measured. The amount of AR protein was measured using western blotting detection method. […] [Protein quantification] […] Then, absorbance was measured at a wavelength of 562 nm. The unknown protein concentration was measured using a BSA standard curve (0, 0.125, 0.25, 0.5, 1, 2 mg/ml). […]
Assay Endpoint: inhibition at 1 µM (%)
Express it in %; write the number only.

The following compounds have reported results that may help.
Compound	inhibition at 1 µM [%]
N#Cc1ccc(N2CCC(C(=O)Nc3ccc(N4CCC(CN5CCN(CC6CCN(c7ccc(C(=O)NC8CCC(=O)NC8=O)nc7)CC6)CC5)CC4)cn3)CC2)cc1C(F)(F)F (stereo not shown)	96
N#Cc1ccc(N2CCC(C(=O)Nc3ccc(N4CCC(CN5CCN(C[C@H]6CCN(c7ccc8c(c7)C(=O)N(C7CCC(=O)NC7=O)C8=O)C6)CC5)CC4)cn3)CC2)cc1C(F)(F)F (stereo partly shown)	97
C[C@@H]1CN(CC2CCN(c3ccc(C(=O)NC4CCC(=O)NC4=O)nc3)CC2)CCN1CC1CCN(c2ccc(NC(=O)C3CCN(c4ccc(C#N)c(C(F)(F)F)c4)CC3)nc2)CC1 (stereo partly shown)	89

// query Provide value of inhibition at 1 µM for this record tested with Androgen Receptor (AR) protein (Homo sapiens, UniProt P10275, T878A): C[C@@H]1CN(CC2CCN(c3ccc4c(n3)CN(C3CCC(=O)NC3=O)C4=O)CC2)CCN1CC1CCN(c2ccc(NC(=O)C3CCN(c4ccc(C#N)c(C(F)(F)F)c4)CC3)nc2)CC1 (stereo partly shown)
// result 93

###

Target: Androgen Receptor (AR) protein (Homo sapiens, UniProt P10275, T878A)
Construct: endogenous in cells; host or cells: LNCaP
Test: Androgen Receptor (AR) protein degradation assay in LNCaP cells, western blotting
Format: cell-based
Settings: 20 h, 1 μM compound
Assay Endpoint: inhibition at 1 µM (%)
Express it in %; write the number only.

The following molecules have reported results that may help.
Molecule	inhibition at 1 µM, %
N#Cc1ccc(N2CCC(C(=O)Nc3ccc(N4CCC(CN5CCN(CC6CCN(c7cc8c(cc7F)C(=O)N(C7CCC(=O)NC7=O)C8=O)CC6)CC5)CC4)cn3)CC2)cc1C(F)(F)F (stereo not shown)	95
N#Cc1ccc(N2CCC(C(=O)Nc3ccc(N4CCC(CN5CCN(C6CCN(c7ccc8c(c7)CN(C7CCC(=O)NC7=O)C8=O)CC6)CC5)CC4)cn3)CC2)cc1C(F)(F)F (stereo not shown)	95
N#Cc1ccc(N2CCN(C(=O)Nc3ccc(N4CCC(CN5CC6(CCN(c7ccc8c(c7)C(=O)N(C7CCC(=O)NC7=O)C8=O)CC6)C5)CC4)nc3)CC2)cc1Cl (stereo not shown)	36
N#Cc1ccc(N2CCC(F)(C(=O)Nc3ccc(N4CCC(CN5CC6(CCN(c7ccc8c(c7)C(=O)N(C7CCC(=O)NC7=O)C8=O)CC6)C5)CC4)cn3)CC2)cc1C(F)(F)F (stereo not shown)	98

// query I'd like to know its inhibition at 1 µM. The molecule in question is N#Cc1ccc(N2CCC(C(=O)Nc3ccc(N4CC(CN5CCN(C[C@@H]6CCN(c7ccc8c(c7)C(=O)N(C7CCC(=O)NC7=O)C8=O)C6)CC5)C4)cn3)CC2)cc1C(F)(F)F (stereo partly shown)
// result 97

// query I'd like to know its inhibition at 1 µM. The molecule in question is N#Cc1ccc(N2CCC(C(=O)Nc3ccc(OCC4CCN(CC5CCN(c6ccc7c(c6)C(=O)N(C6CCC(=O)NC6=O)C7=O)CC5)CC4)cn3)CC2)cc1C(F)(F)F (stereo not shown)
// result 95

// query I'd like to know its inhibition at 1 µM. The molecule in question is N#Cc1ccc(N2CCC(C(=O)Nc3ccc(N4CCC(CCN5CC(N6CCN(c7ccc8c(c7)C(=O)N(C7CCC(=O)NC7=O)C8=O)CC6)C5)CC4)cn3)CC2)cc1C(F)(F)F (stereo not shown)
// result 96

// query I'd like to know its inhibition at 1 µM. The molecule in question is N#Cc1ccc(N2CCC(C(=O)Nc3ccc(N4CCC(CN5CCC(COc6ccc7c(c6)C(=O)N(C6CCC(=O)NC6=O)C7=O)CC5)CC4)cn3)CC2)cc1C(F)(F)F (stereo not shown)
// result 97

// query I'd like to know its inhibition at 1 µM. The molecule in question is N#Cc1ccc(N2CCC(C(=O)Nc3cnc(N4CCC(CN5CC6(CCN(c7ccc8c(c7)C(=O)N(C7CCC(=O)NC7=O)C8=O)CC6)C5)CC4)cn3)CC2)cc1C(F)(F)F (stereo not shown)
// result 98

// query I'd like to know its inhibition at 1 µM. The molecule in question is N#Cc1ncc(N2CCC(F)(C(=O)Nc3ccc(N4CCC(CN5CC6(CCN(c7ccc8c(c7)C(=O)N(C7CCC(=O)NC7=O)C8=O)CC6)C5)CC4)cn3)CC2)cc1C(F)(F)F (stereo not shown)
// result 77

###

Molecular target: Androgen Receptor (AR) protein (Homo sapiens, UniProt P10275, T878A)
Construct: endogenous in cells; host or cells: LNCaP
Assay: Androgen Receptor (AR) protein degradation assay in LNCaP cells, western blotting
Format: cell-based
Conditions: 20 h, 0.01 μM compound
Mark Criterion met for reported inhibition at 0.01 µM of 60% or greater; mark Criterion not met for anything smaller.

Some solved cases for reference:
Compound	Measured On	Category Label
N#Cc1ncc(N2CCC(F)(C(=O)Nc3ccc(N4CCC(CCN5CCN(c6ccc7c(c6)C(=O)N(C6CCC(=O)NC6=O)C7=O)CC5)CC4)cn3)CC2)cc1C(F)(F)F (centres unmarked)	Androgen Receptor (AR) protein (Homo sapiens, UniProt P10275, T878A)	Criterion not met
N#Cc1ccc(N2CCC(C(=O)Nc3ccc(N4CCC(CN5CCN(C6CN(c7ccc8c(c7)C(=O)N(C7CCC(=O)NC7=O)C8=O)C6)CC5)CC4)cn3)CC2)cc1C(F)(F)F (centres unmarked)	Androgen Receptor (AR) protein (Homo sapiens, UniProt P10275, T878A)	Criterion met
C[C@@H]1CN(CC2CCN(c3ccc(NC(=O)C4CCN(c5ccc(C#N)c(C(F)(F)F)c5)CC4)nc3)CC2)CCN1CC1CCN(c2ccc3c(c2)C(=O)N(C2CCC(=O)NC2=O)C3=O)CC1 (some centres unmarked)	Androgen Receptor (AR) protein (Homo sapiens, UniProt P10275, T878A)	Criterion met
N#Cc1ccc(N2CCC(C(=O)Nc3ccc(N4CCC(CCN5CCC6(CC5)CN(c5ccc7c(n5)CN(C5CCC(=O)NC5=O)C7=O)C6)CC4)cn3)CC2)cc1C(F)(F)F (centres unmarked)	Androgen Receptor (AR) protein (Homo sapiens, UniProt P10275, T878A)	Criterion met

Next item in the queue.
// query Decide: inhibition at 0.01 µM of N#Cc1ncc(N2CCC(C(=O)Nc3ccc(N4CCC(CN5CCN(CC6CCN(c7ccc8c(c7)C(=O)N(C7CCC(=O)NC7=O)C8=O)CC6)CC5)CC4)cn3)CC2)cc1C(F)(F)F (centres unmarked) >= 60%?
// result Criterion met

###

Target: Androgen Receptor (AR) protein (Homo sapiens, UniProt P10275, T878A)
Construct: endogenous in cells; host or cells: LNCaP
Test: Androgen Receptor (AR) protein degradation assay in LNCaP cells, western blotting
Type: cell-based
Details: 20 h, 1 μM compound
Mark t for reported inhibition at 1 µM of 90% or greater; mark f for anything smaller.

Some solved cases for reference:
Molecule	Category Label
N#Cc1ccc(N2CCC(C(=O)Nc3ccc(OC4CCN(CC5CCN(c6cc7c(cc6F)C(=O)N(C6CCC(=O)NC6=O)C7=O)CC5)CC4)cn3)CC2)cc1C(F)(F)F (centres unmarked) [Example 170]	t
N#Cc1ccc(N2CCC(O)(C(=O)Nc3ccc(N4CCC(CN5CC6(CCN(c7ccc8c(c7)C(=O)N(C7CCC(=O)NC7=O)C8=O)CC6)C5)CC4)cn3)CC2)cc1C(F)(F)F (centres unmarked) [Example 55]	t
N#Cc1ccc(N2CCC(C(=O)Nc3ccc(N4CCN(CCCCOc5ccc6c(c5)C(=O)N(C5CCC(=O)NC5=O)C6=O)CC4)cn3)CC2)cc1C(F)(F)F (centres unmarked) [Example 115]	f

Next item in the queue.
// query Decide: inhibition at 1 µM of N#Cc1ccc(N2CCC(C(=O)Nc3ccc(N4CC5(CCN(CC6CCN(c7ccc8c(c7)C(=O)N(C7CCC(=O)NC7=O)C8=O)CC6)CC5)C4)cn3)CC2)cc1Cl (centres unmarked) [Example 122] >= 90%?
// result f
